target_or_test_system: Dihydrofolate reductase (Lactobacillus casei, UniProt P00381)
Sequence (P00381 whole entry): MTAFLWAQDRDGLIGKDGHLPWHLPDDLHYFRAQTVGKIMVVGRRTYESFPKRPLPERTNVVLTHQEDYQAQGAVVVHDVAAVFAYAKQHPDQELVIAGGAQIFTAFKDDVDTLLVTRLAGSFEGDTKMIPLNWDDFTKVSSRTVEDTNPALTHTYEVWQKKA
recorded_metric: pIC50
# pIC50: negative log10 of molar concentration; output just the value

Just so you know, measured pIC50 for Nc1nc(N)c2nc(CCOc3ccc(C(=O)NC(CCC(=O)O)C(=O)O)cc3)cnc2n1 (stereo not drawn) came out at 6.70

pIC50 for Nc1nc(N)c2nc(COc3ccc(C(=O)NC(CCC(=O)O)C(=O)O)cc3)cnc2n1 (stereo not drawn) is 8.40

Documented pIC50 of Nc1nc(N)c2nc(CSc3ccc(C(=O)NC(CCC(=O)O)C(=O)O)cc3)cnc2n1 (stereo not drawn) : 8.40
